# Study Target: UniProt:P08246
# Protocol Details: Inhibition of human leukocyte elastase (HLE): rate of inactivation kon and inhibition constant Ki* (= koff/kon)
# Type: biochemical
# Run Parameters: "Kon × 10^-3": value is Kon multiplied by 10^-3
Counter-ions that a name gives are not always drawn.
Measured log10(kinact/KI) by item
Attribute Measured: log10(kinact/KI) (log10 of the value in M⁻¹ s⁻¹)

- Compound: "COc1cc(C(C)C)c2c(c1)S(=O)(=O)N(COC(=O)C1CCC(=O)N1)C2=O (stereo not drawn) [Example 11]"
  log10(kinact/KI): 4.70
- Compound: "COc1cc(C(C)C)c2c(c1)S(=O)(=O)N(COC(=O)c1sccc1C)C2=O [Example 7]"
  log10(kinact/KI): 5.80
- Compound: "CC(C)c1cccc2c1C(=O)N(COC(=O)c1c(Cl)cnc(OCCN3CCOCC3)c1Cl)S2(=O)=O [Example 3, hydrochloride]"
  log10(kinact/KI): 6.18
- Compound: "COc1cc(C(C)C)c2c(c1)S(=O)(=O)N(COC(=O)c1c(C)c3cc(Cl)ccc3n1C)C2=O [Example 15]"
  log10(kinact/KI): 3.78
- Compound: "O=C(OCN1C(=O)c2ccccc2S1(=O)=O)c1c(Cl)cncc1Cl [Example 2]"
  log10(kinact/KI): 4.04
- Compound: "COc1cc(C(C)C)c2c(c1)S(=O)(=O)N(COC(=O)c1c(C)noc1C)C2=O [Example 12]"
  log10(kinact/KI): 4.45
- Compound: "COc1cc(C(C)C)c2c(c1)S(=O)(=O)N(COC(=O)c1sccc1Cl)C2=O [Example 9]"
  log10(kinact/KI): 5.12
- Compound: "COc1cc(C(C)C)c2c(c1)S(=O)(=O)N(COC(=O)c1c(C)nn(-c3ccccc3)c1C)C2=O [Example 13]"
  log10(kinact/KI): 3.95
- Compound: "COc1cc(C(C)C)c2c(c1)S(=O)(=O)N(COC(=O)c1cccs1)C2=O [Example 8]"
  log10(kinact/KI): 5.00
- Compound: "CC(C)c1cccc2c1C(=O)N(COC(=O)c1c(Cl)cncc1Cl)S2(=O)=O [Example 4, hydrochloride]"
  log10(kinact/KI): 6.36
- Compound: "COc1cc(C(C)C)c2c(c1)S(=O)(=O)N(COC(=O)c1c(C)ccnc1C)C2=O [Example 14]"
  log10(kinact/KI): 5.70
- Compound: "COc1cc(C(C)C)c2c(c1)S(=O)(=O)N(COC(=O)c1c(Cl)cnc(OCCN(C)C)c1Cl)C2=O [Example 5]"
  log10(kinact/KI): 5.66
- Compound: "COc1cc(C(C)C)c2c(c1)S(=O)(=O)N(COC(=O)c1cc(C)no1)C2=O [Example 10]"
  log10(kinact/KI): 4.80
- Compound: "COc1cc(C(C)C)c2c(c1)S(=O)(=O)N(COC(=O)c1ccsc1)C2=O [Example 6]"
  log10(kinact/KI): 4.68
- Compound: "O=C(OCN1C(=O)c2ccccc2S1(=O)=O)c1ccncc1 [Example 1]"
  log10(kinact/KI): 3.08

* * *

Sequence of the target: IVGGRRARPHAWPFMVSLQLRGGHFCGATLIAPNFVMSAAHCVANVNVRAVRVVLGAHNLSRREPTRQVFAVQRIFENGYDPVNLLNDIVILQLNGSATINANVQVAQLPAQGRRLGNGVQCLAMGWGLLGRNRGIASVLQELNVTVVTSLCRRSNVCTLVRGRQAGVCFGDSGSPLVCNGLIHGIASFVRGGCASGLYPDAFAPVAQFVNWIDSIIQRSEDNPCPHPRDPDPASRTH
Counter-ions that a name gives are not always drawn.

- Compound: "COc1cc(C(C)C)c2c(c1)S(=O)(=O)N(COC(=O)c1c(C)noc1C)C2=O [Example 12]"
  Unit Text: "nM"
  Ki: 0.36
- Compound: "CC(C)c1cccc2c1C(=O)N(COC(=O)c1c(Cl)cnc(OCCN3CCOCC3)c1Cl)S2(=O)=O [Example 3, hydrochloride]"
  Unit Text: "nM"
  Ki: 0.015
- Compound: "COc1cc(C(C)C)c2c(c1)S(=O)(=O)N(COC(=O)c1cc(C)no1)C2=O [Example 10]"
  Unit Text: "nM"
  Ki: 0.16
- Compound: "COc1cc(C(C)C)c2c(c1)S(=O)(=O)N(COC(=O)c1sccc1Cl)C2=O [Example 9]"
  Unit Text: "nM"
  Ki: 0.076
- Compound: "COc1cc(C(C)C)c2c(c1)S(=O)(=O)N(COC(=O)c1c(C)c3cc(Cl)ccc3n1C)C2=O [Example 15]"
  Unit Text: "nM"
  Ki: 1.5
- Compound: "COc1cc(C(C)C)c2c(c1)S(=O)(=O)N(COC(=O)c1c(C)ccnc1C)C2=O [Example 14]"
  Unit Text: "nM"
  Ki: 0.02

The values you see were collected from patent US5563163A.
